This collection of values is drawn from patent US8853258B2.

Provide the recorded MIC for the entries that follow.
test system: Pseudomonas aeruginosa UI-18: Wild-type (PA-7); experiment: MIC determination (CLSI), PA-7; format: cell-based; conditions: Pseudomonas aeruginosa; Table 3; read-out: PA-7 MIC
Give bare numbers, in µg/mL.

> print(dat)
                                   molecule  readout.value
1  CCCOc1ccc(CCC(C)(C(=O)NO)S(C)(=O)=O)cc1 (stereo not drawn)              8
2  CC(CCc1ccc(OCc2nc(-c3cccnc3)no2)cc1)(C(=O)NO)S(C)(=O)=O (stereo not drawn)             32
3  CC(CCc1ccc(OCCCC2CCCCC2)cc1)(C(=O)NO)S(C)(=O)=O (stereo not drawn)             32

Look at each molecule and report its MIC.
1. CC(CCc1ccc(OCCC2CCOCC2)cc1)(C(=O)NO)S(C)(=O)=O (stereo not drawn)
2. CC(CCc1ccc(OCc2ccc(OC(F)(F)F)cc2)cc1)(C(=O)NO)S(C)(=O)=O (stereo not drawn)
3. CCCCCCOc1ccc(CCC(C)(C(=O)NO)S(C)(=O)=O)cc1 (stereo not drawn)
4. CC(C)CCCOc1ccc(CCC(C)(C(=O)NO)S(C)(=O)=O)cc1 (stereo not drawn)
5. CCc1ccccc1COc1ccc(CCC(C)(C(=O)NO)S(C)(=O)=O)cc1 (stereo not drawn)

Reply |
1. 32
2. 8
3. 16
4. 16
5. 16

* * *

Would you mind telling me the reported AB-3167 MIC of each entry?
Tested on: Acinetobacter baumanii/haemolyticus: Multidrug-resistant clinical isolate (AB-3167)
Experiment: MIC determination (CLSI), AB-3167
Type: cell-based
Conditions: Acinetobacter baumanii/haemolyticus multidrug-resistant clinical isolate AB-3167
Protocol: The in vitro antibacterial activity of compounds described in the Examples was evaluated by minimum inhibitory concentration (MIC) testing according to Clinical and Laboratory Standards Institute (CLSI, formerly NCCLS) guidelines. See: Clinical and Laboratory Standards Institute. Methods for Dilution Antimicrobial Susceptibility Tests for Bacteria that Grow Aerobically; Approved Standard-Seventh Edition. CLSI document M7-A7 [ISBN 1-56238-587-9]. […]
One number for each entry, in µg/mL.

> print(dat)
                                   molecule  unit.annotation  readout.value
1  Cc1cc(C)cc(-c2ccc(CCC(C)(C(=O)NO)S(C)(=O)=O)cc2)c1 (racemic)            µg/mL              8
2  CC(CCc1ccc(-c2ccc(C(=O)CO)cc2)cc1)(C(=O)NO)S(C)(=O)=O (centres unmarked)            µg/mL             32
3  COc1ccc(OC)c(-c2ccc(CCC(C)(C(=O)NO)S(C)(=O)=O)cc2)c1 (centres unmarked)            µg/mL             16

Record Cc1cc(CCC(C)(C(=O)NO)S(C)(=O)=O)ccc1-c1ccccc1 (centres unmarked) has Acinetobacter baumanii/haemolyticus: Multidrug-resistant clinical isolate (AB-3167) AB-3167 MIC equal to 32

* * *

tested on: Klebsiella pneumoniae: Ciprofloxacin-resistant isolate, ESBL, clinical isolate (KP-3700); assay: MIC determination (CLSI), KP-3700; assay type: cell-based
PROPERTY LABEL: KP-3700 MIC

Examples from the recorded data:
> print(dat)
                                   molecule  readout.value
1  CC(CCc1ccc(OC2CCCCC2)cc1)(C(=O)NO)S(C)(=O)=O (centres unmarked) [Example 238]       ≧64 mg/L
2  C[C@@](CCc1ccc(-c2cnc3cc[nH]c3c2)cc1)(C(=O)NO)S(C)(=O)=O [Example 211]       ≧64 mg/L
3  CC(=O)c1ccc(-c2ccc(CC[C@](C)(C(=O)NO)S(C)(=O)=O)cc2)cn1 [Example 190]        4 µg/mL
4  CC(CCc1ccc(-c2cc(Cl)ccc2F)cc1)(C(=O)NO)S(C)(=O)=O (racemic) [Example 90]        8 µg/mL
5  Cc1cc(CCC(C)(C(=O)NO)S(C)(=O)=O)ccc1-c1ccc(C#N)cc1 (centres unmarked) [Example 162]       16 µg/mL
6  CC(CCc1ccc(OCc2ccccc2C#N)cc1)(C(=O)NO)S(C)(=O)=O (centres unmarked) [Example 285]       ≧64 mg/L

// each molecule listed below needs its KP-3700 MIC
1. CC(CCc1ccc(-c2cccc(F)c2F)cc1)(C(=O)NO)S(C)(=O)=O (centres unmarked) [Example 62]
2. Cc1cccc(-c2ccc(CCC(C)(C(=O)NO)S(C)(=O)=O)cc2)c1C (centres unmarked) [Example 78]
3. CC(CCc1ccc(-c2ccc(F)cc2)cn1)(C(=O)NO)S(C)(=O)=O (centres unmarked) [Example 164]
4. CC(CCc1ccc(OCc2ccccn2)cc1)(C(=O)NO)S(C)(=O)=O (racemic) [Example 16]
5. CC(CCc1ccc(OCc2cc(C#N)ccc2F)cc1)(C(=O)NO)S(C)(=O)=O (centres unmarked) [Example 275]
6. CC(C)(O)c1ccccc1-c1ccc(CCC(C)(C(=O)NO)S(C)(=O)=O)cc1 (centres unmarked) [Example 153]
7. CC(CCc1ccc(OCc2nc3ccccc3s2)cc1)(C(=O)NO)S(C)(=O)=O (centres unmarked) [Example 277]
8. CC(CCc1ccc(-c2ccc(OCCCCO)cc2)cc1)(C(=O)NO)S(C)(=O)=O (centres unmarked) [Example 136]

Reply |
["16 µg/mL", "16 µg/mL", "32 µg/mL", "≧64 mg/L", "≧64 mg/L", "≧64 mg/L", "16 µg/mL", "1 µg/mL"]

// for each molecule below, give its KP-3700 MIC
1. CC(CCc1ccc(OCc2nc(-c3cccc(F)c3)no2)cc1)(C(=O)NO)S(C)(=O)=O (centres unmarked) [Example 241]
2. C[C@@](CCc1ccc(-c2ccc(NS(C)(=O)=O)cc2)cc1)(C(=O)NO)S(C)(=O)=O [Example 210]
3. CC(CCc1ccc(-c2cc(F)c(OCCO)c(F)c2)cc1)(C(=O)NO)S(C)(=O)=O (centres unmarked) [Example 150]

Reply |
≧64 mg/L
16 µg/mL
8 µg/mL

* * *

test system: Klebsiella pneumoniae: Ciprofloxacin-resistant isolate, ESBL, clinical isolate (KP-3700); test: MIC determination (CLSI), KP-3700; format: cell-based
PROPERTY LABEL: KP-3700 MIC (µg/mL)
Give bare numbers, in µg/mL.

> print(dat)
                                   compound  property.label  unit.annotation  readout.value
1  CC(CCc1ccc(-c2ccc(O)cc2)cc1F)(C(=O)NO)S(C)(=O)=O (stereo not shown) [Example 178]     KP-3700 MIC            µg/mL              4

Now for a further compound.
The recorded KP-3700 MIC for entry CC(CCc1ccc(C2=CCCCC2)cc1)(C(=O)NO)S(C)(=O)=O (stereo not shown) [Example 224] equals 16

* * *

test system: Klebsiella pneumoniae: Ciprofloxacin-resistant isolate, ESBL, clinical isolate (KP-3700); test: MIC determination (CLSI), KP-3700; assay type: cell-based
PROPERTY LABEL: KP-3700 MIC (µg/mL)
Answers are plain numbers, in µg/mL.

> print(dat)
                                   compound  readout.value
1  CC(CCc1ccc(-c2ccc(C(=O)CO)cc2)cc1F)(C(=O)NO)S(C)(=O)=O (stereo not shown)              4

# return KP-3700 MIC for each item in the list
1. Cc1cc(C#N)ccc1-c1ccc(CCC(C)(C(=O)NO)S(C)(=O)=O)cc1 (stereo not shown)
2. CC(CCc1ccc(-c2ccc(-c3cc(CO)no3)cc2)cc1)(C(=O)NO)S(C)(=O)=O (stereo not shown)

Reply |
[8, 4]

* * *

Record form. Attribute: pIC50. Fill in for each entry.
Molecular target: Pseudomonas aeruginosa LpxC enzyme (Pseudomonas aeruginosa (strain ATCC 15692 / DSM 22644 / CIP 104116 / JCM 14847 / LMG 12228 / 1C / PRS 101 / PAO1))
Test: IC50 Assay, LpxC Enzyme from P. aeruginosa (PA LpxC Enzyme IC50)
Format: biochemical
Details: Table 3; read-out: PA LpxC enzyeme IC^50
Protocol: In order to assess the compounds biological activity, selected in-vitro assays were conducted on selected compounds. One of the assays measured the compounds ability to disrupt the synthesis of lipopolysaccharide, LPS, which is a component of the outer membrane of Gram-negative bacteria. Disruption of this synthesis is lethal to the bacteria. The assay determined the compound's ability to inhibit LpxC, which is the first enzyme in the biosynthetic pathway for LPS (measured as IC50). […]
Numbers only, as −log10 of the molar value.

Below is a list of molecules. For each, state its recorded pIC50.
1. CC(CCc1ccc(OCc2ccc(S(C)(=O)=O)cc2)cc1)(C(=O)NO)S(C)(=O)=O (centres unmarked)
2. CCCCCc1noc(COc2ccc(CCC(C)(C(=O)NO)S(C)(=O)=O)cc2)n1 (centres unmarked)
3. CC(CCc1ccc(OCc2ccc(-n3cccn3)cc2)cc1)(C(=O)NO)S(C)(=O)=O (centres unmarked)
4. CC(CCc1ccc(OCc2ccc(F)cc2F)cc1)(C(=O)NO)S(C)(=O)=O (centres unmarked)
5. Cc1cccc(Cc2noc(COc3ccc(CCC(C)(C(=O)NO)S(C)(=O)=O)cc3)n2)c1 (centres unmarked)
6. CC(CCc1ccc(OCc2nc(-c3cccnc3)no2)cc1)(C(=O)NO)S(C)(=O)=O (centres unmarked)
7. Cc1oc(-c2cccc(F)c2)nc1COc1ccc(CCC(C)(C(=O)NO)S(C)(=O)=O)cc1 (centres unmarked)
8. CC(CCc1ccc(OCc2ccccc2F)cc1)(C(=O)NO)S(C)(=O)=O (centres unmarked)

Reply |
[8.92, 7.90, 8.70, 9.00, 7.98, 8.12, 7.90, 9.18]
